Values from ChEMBL document CHEMBL1681668

protocolSummary: Half life in rat at 5 mg/kg, iv
Assay type: ADME, organism-based
Parameters: dose 5 mg/kg, route intravenous
cond: in vivo
measurementKind: half-life (h)
// note: answer is a bare numeric in h

stdin: What does the record list as half-life for CO[C@@H]1COCC[C@@H]1N[C@@H]1CC[C@@](C(=O)N2CCN(c3cc(C(F)(F)F)ccn3)CC2)(C(C)C)C1 ?
stdout: 5

----------
protocolSummary: Oral bioavailability in cynomolgus monkey at 10 mg/kg
Format: ADME, organism-based, Macaca fascicularis
cond: in vivo
measurementKind: bioavailability (%)
// note: answer is a bare numeric in %

stdin: What does the record list as bioavailability for CO[C@@H]1COCC[C@@H]1N[C@@H]1CC[C@@](C(=O)N2CCN(c3cc(C(F)(F)F)ccn3)CC2)(C(C)C)C1 ?
stdout: 57

----------
protocolSummary: Half life in cynomolgus monkey at […], iv
Assay type: ADME, organism-based, Macaca fascicularis
Design: dose 2.5 mg/kg, route intravenous
cond: in vivo
measurementKind: half-life (min)
// note: answer is a bare numeric in min

stdin: What does the record list as half-life for CO[C@@H]1COCC[C@@H]1N[C@@H]1CC[C@@](C(=O)N2CCN(c3cc(C(F)(F)F)ccn3)CC2)(C(C)C)C1 ?
stdout: 180

----------
protocolSummary: AUC in rat at 10 mg/kg, po
Format: ADME, organism-based
Set-up: dose 10 mg/kg, route oral
cond: plasma
measurementKind: AUC

stdin: What does the record list as AUC for CO[C@@H]1COCC[C@@H]1N[C@@H]1CC[C@@](C(=O)N2CCN(c3cc(C(F)(F)F)ccn3)CC2)(C(C)C)C1 ?
stdout: 3 µM·h

----------
protocolSummary: AUC in cynomolgus monkey at 10 mg/kg, po
Type: ADME, organism-based, Macaca fascicularis
Set-up: dose 10 mg/kg, route oral
cond: plasma
measurementKind: AUC (µM·h)
// note: answer is a bare numeric in µM·h

stdin: What does the record list as AUC for CO[C@@H]1COCC[C@@H]1N[C@@H]1CC[C@@](C(=O)N2CCN(c3cc(C(F)(F)F)ccn3)CC2)(C(C)C)C1 ?
stdout: 5.3

----------
protocolSummary: Volume of distribution at steady state in rat at 5 mg/kg, iv and 10 mg/kg, po
Assay type: ADME, organism-based
cond: in vivo, read-out: Vdss
measurementKind: Vd (L/kg)
// note: answer is a bare numeric in L/kg

stdin: What does the record list as Vd for CO[C@@H]1COCC[C@@H]1N[C@@H]1CC[C@@](C(=O)N2CCN(c3cc(C(F)(F)F)ccn3)CC2)(C(C)C)C1 ?
stdout: 17

----------
protocolSummary: Clearance in cynomolgus monkey at […], iv and 10 mg/kg, po
Type: ADME, organism-based, Macaca fascicularis
cond: in vivo
measurementKind: clearance (mL/min/kg)
// note: answer is a bare numeric in mL/min/kg

stdin: What does the record list as clearance for CO[C@@H]1COCC[C@@H]1N[C@@H]1CC[C@@](C(=O)N2CCN(c3cc(C(F)(F)F)ccn3)CC2)(C(C)C)C1 ?
stdout: 36.7

----------
protocolSummary: Volume of distribution at steady state in cynomolgus monkey at […], iv and 10 mg/kg, po
Format: ADME, organism-based, Macaca fascicularis
cond: in vivo, read-out: Vdss
measurementKind: Vd (L/kg)
// note: answer is a bare numeric in L/kg

stdin: What does the record list as Vd for CO[C@@H]1COCC[C@@H]1N[C@@H]1CC[C@@](C(=O)N2CCN(c3cc(C(F)(F)F)ccn3)CC2)(C(C)C)C1 ?
stdout: 6.2
